system.name: T1, CD47 on the surface of tumor cells (human, UniProt Q08722 19-323)
T1 construct: whole, on cells; Same protein as m4; also called CD47 antigen on the surface of U937 and CCRF cells; SKOV-3
protocol.description: FACS, tumor cells, 2 nM
readout: FACS (MFI)
Only the number, expressed in MFI, is required.

**Q:** Determine from records and report FACS (MFI) for hz140-Hm13/hz182-Lm8 (antibody, V domains shown, also called h182Lmut8) VH: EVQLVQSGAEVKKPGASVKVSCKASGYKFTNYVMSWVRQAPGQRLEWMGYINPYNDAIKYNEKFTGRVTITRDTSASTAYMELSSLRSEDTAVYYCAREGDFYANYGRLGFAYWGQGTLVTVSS VL: DIQMTQSPSSLSASVGDRVTITCRASQDISNYLNWYQQKPGKAPKLLLYYTSRLHSGVPSRFSGSGSGTDYTLTISSLQPEDFATYFCQQGAGRPRTFGGGTKVEIKR
**A:** 39100
